target: Muscarinic acetylcholine receptor M5 (Homo sapiens)
measurement-protocol: human M5 muscarinic receptor antagonists, primary screen, CHO cells, Fluo-8 calcium fluorescence (AID 624040)
condition: CHO-hM5 cells, ACh EC80, at 3 µM
Out of some 360,000 compounds screened, about 2,100 (0.58%) were called active.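 Rule for the calls: active = inhibition above a per-plate cutoff, the mean of that plate's test compounds plus 3 SD (cut at about 27% in these data); inactive = the rest.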 For the sample, actives were picked, then their nearest neighbours and some compounds at random.
Outcomes: active, inactive

* CC(=O)N1CCCc2cc(S(=O)(=O)N3CCCC(C(=O)N4CCN(c5cccc(Cl)c5)CC4)C3)ccc21 (configuration not stated) | active
* Cn1c(CCCOc2ccc(Cl)cc2Cl)n[nH]c1=S | inactive
* CC(=O)Oc1ccc(C(=O)Nc2nccs2)cc1 | inactive
* C=CCC1(CC=C)CCCN1C(=O)c1cc(COc2ccc(-n3cncn3)cc2)on1 | active
* O=C(CN1CCCCC1)N1c2ccccc2Sc2ccc(C(F)(F)F)cc21 | active
* Cc1cccc(N2CCN(S(=O)(=O)c3ccc(-c4cc(C)no4)s3)CC2C)c1 (configuration not stated) | inactive
* Fc1cccc2ncnc(OCc3ccccc3)c12 | inactive
* COc1ccc(OC)c(C2N(c3ccccn3)C(=O)C3CCCN32)c1 (configuration not stated) | inactive
* CCN(CC)C(=O)C1CCCN(Cc2cccc(Cl)c2)C1 (configuration not stated) | inactive
* CCC(=O)Nc1cc(C(F)(F)F)ccc1N1CCCC1 | inactive
* COc1cc(C(=O)NCc2ccc(-n3cccc3)cc2)cc(OC)c1OC | inactive
* COc1cc(C(=O)NCc2nnc(SCC(=O)Nc3nc4ccc(C)cc4s3)o2)cc(OC)c1OC | inactive
* COc1ccccc1C(CNC(=O)c1cccc(NS(=O)(=O)c2ccc(Br)cc2)c1)N(C)C (configuration not stated) | active
* COc1ccc(NC(=O)CC2C(=O)NC3CCCCC3N2C(=O)c2ccc(F)cc2)cc1 (configuration not stated) | inactive
* CCc1c(Nc2ccccc2Cl)nc(N)[nH]c1=O | inactive
* COc1ccccc1C(CNC(=O)c1cccc(S(=O)(=O)Nc2ccc(F)cc2)c1)N(C)C (configuration not stated) | active
* COc1cc(OC)cc(-c2c(C#Cc3ccsc3)c3cc(-c4ccc(OC)cc4F)ccc3n2C)c1 | inactive
* Cc1ccc(NC(=O)c2cc([N+](=O)[O-])ccc2Cl)c(O)c1 | inactive
* CC(=O)c1ccc(S(=O)(=O)Nc2ccc(C(=O)NCC(c3ccccc3)N(C)C)cc2)cc1 (configuration not stated) | inactive
* COc1ccccc1CNC(=O)c1ccc(Cl)c(S(=O)(=O)N2CCCC2)c1 | inactive
* Cc1ccc(C(=O)NCC(c2cccs2)N(C)C)cc1S(=O)(=O)N1CCOCC1 (configuration not stated) | inactive
* Cc1ccc(S(=O)(=O)N2CCCC(C(=O)N3CCN(C)CC3)C2)cc1 (configuration not stated) | inactive
* CN(C)C(CNC(=O)c1cccc(S(=O)(=O)Nc2ccc(Br)cc2)c1)c1ccco1 (configuration not stated) | inactive
* O=C(CN1CCCCCC1)N1c2ccccc2Sc2ccc(C(F)(F)F)cc21 | active
* CCOc1ccc(NC(=O)CSc2nc3ccccc3c(=O)n2Cc2cccs2)cc1 | inactive
* COc1cc(OC)cc(C(=O)NC(=S)N2CCN(c3ccc(C(F)(F)F)cc3[N+](=O)[O-])CC2)c1 | inactive
* CC(C)c1nnc(NC(=O)C2CCCN2S(=O)(=O)c2ccc(Cl)cc2)s1 (configuration not stated) | inactive
* CN(C)c1ccc(/C=C2\NC(=S)N(Cc3ccccc3)C2=O)cc1 | active
* COc1ccc(S(=O)(=O)N2CCCC(C(=O)N3CCN(C)CC3)C2)cc1C (configuration not stated) | inactive
* CSc1ncc(C(=O)Nc2ccc(C)cc2C)c(C)n1 | inactive
* CC1CN(c2nc(-c3ccccc3)nnc2-c2ccccc2)CC(C)O1 (configuration not stated) | inactive
* CCn1ncc(CNC(=O)C2(C)CC2(Br)Br)c1C (configuration not stated) | inactive
* c1ccc(C(=NNc2nc3ccccc3s2)c2ccccn2)cc1 | active
* O=C(NCC(=O)N1CCC2(CC1)NCCc1[nH]cnc12)c1ccc(Br)cc1 | inactive
* CC(C)(C)NCc1cc(Br)ccc1OC1CCCC1 | inactive
* Cc1cc(NS(=O)(=O)c2ccc(NC(=O)c3cccc(OC(F)F)c3)cc2)nc(C)n1 | inactive
* Cc1cccc(NS(=O)(=O)c2ccc(C)c(C(=O)NCC(c3ccccc3)N(C)C)c2)c1 (configuration not stated) | inactive
* O=C(c1cc(C(=O)N2CCN(c3ccc(F)cc3)CC2)cc([N+](=O)[O-])c1)N1CCN(c2ccc(F)cc2)CC1 | active
* O=C(CN1CCCCCC1)Nc1ccc(Cl)cc1F | inactive
* Cc1sc(NC(=O)C2C3CCC(O3)C2C(=O)O)c(C(=O)OC(C)C)c1-c1ccc(Cl)cc1 (configuration not stated) | inactive
* CCCN(Cc1cc2cccc(C)c2[nH]c1=O)S(C)(=O)=O | inactive
* Cc1cc(-c2ccc(S(=O)(=O)N3CCc4ccccc4C3)s2)on1 | inactive
